Kindly supply the reported GI50 values for the records listed here.
Biological target: Ba/F3 EGFR-V769_D770insASV (Homo sapiens, UniProt P00533, DUP767-769, cells depend on it)
Sequence (P00533 with tags, fused parts or gaps DUP767-769): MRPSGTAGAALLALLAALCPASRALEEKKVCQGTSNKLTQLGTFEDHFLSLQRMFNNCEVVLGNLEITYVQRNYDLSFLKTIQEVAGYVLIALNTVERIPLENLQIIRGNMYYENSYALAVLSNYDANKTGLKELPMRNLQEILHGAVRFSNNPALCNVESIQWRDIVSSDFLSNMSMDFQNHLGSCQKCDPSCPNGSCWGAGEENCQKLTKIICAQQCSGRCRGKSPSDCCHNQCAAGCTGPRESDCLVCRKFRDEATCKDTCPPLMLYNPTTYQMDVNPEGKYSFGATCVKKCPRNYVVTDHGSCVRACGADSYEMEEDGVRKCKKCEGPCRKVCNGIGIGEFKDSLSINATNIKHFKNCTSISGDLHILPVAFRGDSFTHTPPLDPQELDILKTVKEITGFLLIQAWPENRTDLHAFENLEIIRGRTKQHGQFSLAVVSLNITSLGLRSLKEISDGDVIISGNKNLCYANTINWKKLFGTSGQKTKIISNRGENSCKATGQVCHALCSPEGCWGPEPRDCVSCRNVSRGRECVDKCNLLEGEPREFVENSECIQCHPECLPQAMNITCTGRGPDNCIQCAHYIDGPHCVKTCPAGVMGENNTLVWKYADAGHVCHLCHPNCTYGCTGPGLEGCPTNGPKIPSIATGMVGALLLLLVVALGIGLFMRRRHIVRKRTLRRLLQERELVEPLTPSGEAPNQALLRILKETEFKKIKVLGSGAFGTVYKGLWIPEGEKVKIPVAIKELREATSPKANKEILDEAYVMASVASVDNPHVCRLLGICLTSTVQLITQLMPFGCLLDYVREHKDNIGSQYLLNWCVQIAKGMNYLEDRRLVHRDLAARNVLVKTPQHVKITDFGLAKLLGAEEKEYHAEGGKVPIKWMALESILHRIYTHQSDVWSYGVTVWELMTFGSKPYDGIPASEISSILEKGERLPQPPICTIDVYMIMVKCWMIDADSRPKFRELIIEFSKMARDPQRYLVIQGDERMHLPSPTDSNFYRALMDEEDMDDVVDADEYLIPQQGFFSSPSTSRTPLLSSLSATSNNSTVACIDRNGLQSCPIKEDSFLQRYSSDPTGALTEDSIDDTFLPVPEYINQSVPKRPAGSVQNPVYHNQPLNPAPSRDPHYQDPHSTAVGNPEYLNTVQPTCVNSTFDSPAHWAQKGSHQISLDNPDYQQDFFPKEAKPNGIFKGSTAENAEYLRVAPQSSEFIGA
Assay: Proliferation experiment of Ba/F3 cell line, EGFR-V769_D770insASV (CellTiter-Glo)
Format: cell-based
Settings: cultured for 72 hrs with compound, CTG analysis, read-out: Ba/F3 EGFR-V769_D770insASV IC50
Answers are plain numbers, in nM.

I have 6 compounds here; please give me GI50 for each one.
1. C=CC(=O)Nc1cc2c(Nc3ccnc(-c4ccccc4F)c3)ncnc2cc1OCC(F)(F)F
2. C=CC(=O)Nc1cc2c(Nc3ccnc(-c4ccccc4F)c3)ncnc2cc1OC
3. CN(C)C/C=C/C(=O)Nc1cc2c(Nc3ccnc(-c4ccccc4F)c3)ncnc2cc1O[C@@H]1CCN(C)C1
4. C=CC(=O)Nc1cc2c(Nc3ccnc(-c4ccc(F)cc4F)c3)ncnc2cc1OCCCN1CCOCC1
5. C=CC(=O)Nc1cc2c(Nc3cccc(-c4c(F)cccc4F)c3)ncnc2cc1OCCCN1CCN(C)CC1=O
6. C=CC(=O)Nc1cc2c(Nc3ccc(F)c(-c4ncccc4F)c3)ncnc2cc1OCCCN1CCN(C)CC1

1. 3.2
2. 2.6
3. 11.5
4. 3.8
5. 68.3
6. 49.3

Each compound below has a recorded value; state its GI50.
1. C=CC(=O)Nc1cc2c(Nc3cccc(-c4ccccc4F)c3)ncnc2cc1OCCCN1CCN(C)CC1
2. C=CC(=O)Nc1cc2c(Nc3cccc(-n4nccn4)c3)ncnc2cc1OCCN1CCOCC1

[15.8, 107]
